Tested on: 454973-116-R2-J3-PDC complex spheroid viability;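 also: spheroids exposed to drugs for seven days before measurement; percent viability relative to DMSO vehicle control wells taken as 100%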
ASSAY_DETAILS: Anticancer human tumor 454973-116-R2-J3-PDC patient-derived pancreatic carcinoma cell line growth inhibition [POLQ]
EXPERIMENTAL_SETUP: second compound 0.1 µM; first compound 0.01 µM; hits give low values
Kindly state viability, T/C for each of the entries shown.
Numbers only, in %.

{"COMPOUND": "COc1cccc(OCCCN)c1-c1cc(Nc2cnc(C#N)cn2)n[nH]1 + COC1C(OC(N)=O)C(O)C(Oc2ccc3c(O)c(NC(=O)c4ccc(O)c(CC=C(C)C)c4)c(=O)oc3c2C)OC1(C)C", "viability, T/C [%]": 78.8}
{"COMPOUND": "Cn1ncnc1[C@H]1c2n[nH]c(=O)c3cc(F)cc(c23)N[C@@H]1c1ccc(F)cc1 + Nc1ccc(C#CCN(C(=O)Cc2ncc(C(F)(F)F)cc2C(F)(F)F)c2ccc(F)cc2)nn1", "viability, T/C [%]": 98.9}
{"COMPOUND": "C=CCn1c(=O)c2cnc(Nc3ccc(N4CCN(C)CC4)cc3)nc2n1-c1cccc(C(C)(C)O)n1 + COC1C(OC(N)=O)C(O)C(Oc2ccc3c(O)c(NC(=O)c4ccc(O)c(CC=C(C)C)c4)c(=O)oc3c2C)OC1(C)C", "viability, T/C [%]": 104}
{"COMPOUND": "C=CCn1c(=O)c2cnc(Nc3ccc(N4CCN(C)CC4)cc3)nc2n1-c1cccc(C(C)(C)O)n1 + Cc1cccc(N(C)C(=O)C2C(O)CCN2c2nc(C)cc(C(F)(F)F)c2C#N)c1", "viability, T/C [%]": 104}
{"COMPOUND": "CCc1c2c(nc3ccc(O)cc13)-c1cc3c(c(=O)n1C2)COC(=O)[C@]3(O)CC + Cc1cccc(N(C)C(=O)C2C(O)CCN2c2nc(C)cc(C(F)(F)F)c2C#N)c1", "viability, T/C [%]": 19.1}
{"COMPOUND": "Cn1ncnc1[C@H]1c2n[nH]c(=O)c3cc(F)cc(c23)N[C@@H]1c1ccc(F)cc1 + COC1C(OC(N)=O)C(O)C(Oc2ccc3c(O)c(NC(=O)c4ccc(O)c(CC=C(C)C)c4)c(=O)oc3c2C)OC1(C)C", "viability, T/C [%]": 104}
{"COMPOUND": "CC[C@@]1(O)C(=O)OCc2c1cc1n(c2=O)Cc2cc3c(CN(C)C)c(O)ccc3nc2-1 + COC1C(OC(N)=O)C(O)C(Oc2ccc3c(O)c(NC(=O)c4ccc(O)c(CC=C(C)C)c4)c(=O)oc3c2C)OC1(C)C", "viability, T/C [%]": 82.6}
{"COMPOUND": "CCc1c2c(nc3ccc(O)cc13)-c1cc3c(c(=O)n1C2)COC(=O)[C@]3(O)CC + Nc1ccc(C#CCN(C(=O)Cc2ncc(C(F)(F)F)cc2C(F)(F)F)c2ccc(F)cc2)nn1", "viability, T/C [%]": 10.4}

Hi! Can you tell me viability, T/C for each of these compounds?
1. CC[C@@]1(O)C(=O)OCc2c1cc1n(c2=O)Cc2cc3c(CN(C)C)c(O)ccc3nc2-1 + Cc1cccc(N(C)C(=O)C2C(O)CCN2c2nc(C)cc(C(F)(F)F)c2C#N)c1
2. CCc1c2c(nc3ccc(O)cc13)-c1cc3c(c(=O)n1C2)COC(=O)[C@]3(O)CC + COC1C(OC(N)=O)C(O)C(Oc2ccc3c(O)c(NC(=O)c4ccc(O)c(CC=C(C)C)c4)c(=O)oc3c2C)OC1(C)C
3. Cn1ncnc1[C@H]1c2n[nH]c(=O)c3cc(F)cc(c23)N[C@@H]1c1ccc(F)cc1 + Cc1cccc(N(C)C(=O)C2C(O)CCN2c2nc(C)cc(C(F)(F)F)c2C#N)c1
4. COc1cccc(OCCCN)c1-c1cc(Nc2cnc(C#N)cn2)n[nH]1 + Cc1cccc(N(C)C(=O)C2C(O)CCN2c2nc(C)cc(C(F)(F)F)c2C#N)c1
5. COc1cccc(OCCCN)c1-c1cc(Nc2cnc(C#N)cn2)n[nH]1 + Nc1ccc(C#CCN(C(=O)Cc2ncc(C(F)(F)F)cc2C(F)(F)F)c2ccc(F)cc2)nn1
6. CC[C@@]1(O)C(=O)OCc2c1cc1n(c2=O)Cc2cc3c(CN(C)C)c(O)ccc3nc2-1 + Nc1ccc(C#CCN(C(=O)Cc2ncc(C(F)(F)F)cc2C(F)(F)F)c2ccc(F)cc2)nn1

Result:
88.6
13.7
97.2
75.2
63.5
73.2

Q: Entry under review: C=CCn1c(=O)c2cnc(Nc3ccc(N4CCN(C)CC4)cc3)nc2n1-c1cccc(C(C)(C)O)n1 + Nc1ccc(C#CCN(C(=O)Cc2ncc(C(F)(F)F)cc2C(F)(F)F)c2ccc(F)cc2)nn1 . Reported viability, T/C?
Result: 102
